# MEASURED TARGET: EGFR (Homo sapiens (Human), UniProt P00533)
# Sequence (P00533 25-1210): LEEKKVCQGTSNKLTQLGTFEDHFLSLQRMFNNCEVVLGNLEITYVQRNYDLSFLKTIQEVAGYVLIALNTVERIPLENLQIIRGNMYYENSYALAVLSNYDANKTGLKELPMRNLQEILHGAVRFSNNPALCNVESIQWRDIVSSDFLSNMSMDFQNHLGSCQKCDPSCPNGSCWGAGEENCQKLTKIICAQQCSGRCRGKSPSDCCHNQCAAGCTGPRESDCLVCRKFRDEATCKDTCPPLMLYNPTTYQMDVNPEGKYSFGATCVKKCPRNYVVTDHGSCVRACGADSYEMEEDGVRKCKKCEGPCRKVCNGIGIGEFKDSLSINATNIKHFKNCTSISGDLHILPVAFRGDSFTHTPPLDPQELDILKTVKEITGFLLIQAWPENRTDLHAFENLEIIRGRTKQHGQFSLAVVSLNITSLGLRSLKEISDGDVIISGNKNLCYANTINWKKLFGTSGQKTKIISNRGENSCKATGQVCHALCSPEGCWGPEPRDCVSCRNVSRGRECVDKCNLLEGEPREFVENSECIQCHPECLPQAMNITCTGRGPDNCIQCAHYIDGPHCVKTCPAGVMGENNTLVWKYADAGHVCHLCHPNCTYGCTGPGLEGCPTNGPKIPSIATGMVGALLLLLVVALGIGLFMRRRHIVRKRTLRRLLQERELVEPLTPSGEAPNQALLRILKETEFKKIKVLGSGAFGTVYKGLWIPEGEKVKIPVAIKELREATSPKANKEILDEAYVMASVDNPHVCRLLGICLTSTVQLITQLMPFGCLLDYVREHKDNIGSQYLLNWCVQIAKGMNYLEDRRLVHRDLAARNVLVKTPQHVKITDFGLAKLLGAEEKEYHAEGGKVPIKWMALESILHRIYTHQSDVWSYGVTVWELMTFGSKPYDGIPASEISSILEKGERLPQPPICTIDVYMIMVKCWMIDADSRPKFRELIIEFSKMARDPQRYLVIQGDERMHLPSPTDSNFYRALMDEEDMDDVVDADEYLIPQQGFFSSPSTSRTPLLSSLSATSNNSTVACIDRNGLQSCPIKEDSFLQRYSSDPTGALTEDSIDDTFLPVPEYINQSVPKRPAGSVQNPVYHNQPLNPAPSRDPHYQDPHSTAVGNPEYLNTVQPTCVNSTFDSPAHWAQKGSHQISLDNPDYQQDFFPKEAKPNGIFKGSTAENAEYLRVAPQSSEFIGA
# TEST SUMMARY: ErbB Enzyme Assay (HTRF KinEASE-TK), Assay 3
# Assay type: biochemical
# CONDITIONS USED: EGFR enzyme
MEASURED ENDPOINT: IC50

Study these solved cases before continuing.
| COMPOUND | ASSAY RESULT |
| --- | --- |
| C=CC(=O)N1[C@@H]2CC[C@H]1C[C@@H](c1ccc3ncnc(Nc4cc(C)c(Oc5cnc6c(c5)ncn6C)cc4F)c3n1)C2 | ≥ 10 µM |
| C=CC(=O)N1CC[C@H]2C[C@@H]1CN2c1ccc2ncnc(Nc3ccc(Oc4cnc5c(c4)ncn5C)c(C)c3F)c2n1 | ≥ 10 µM |
| C=CC(=O)N1C[C@@H](c2ccc3ncnc(Nc4cc(C)c(Oc5ccc6c(c5)ncn6C)cc4F)c3n2)CC[C@H]1C | ≥ 10 µM |
| C=CC(=O)N1CCC(Sc2ccc3ncnc(Nc4cc(C)c(Oc5ccc6c(c5)ncn6C)cc4F)c3n2)CC1 | ≥ 10 µM |
| C=CC(=O)N1CCC(c2nc3c(Nc4ccc(Oc5ccc6c(c5)ncn6C)c(C)c4)ncnc3cc2OC)CC1 | 0.778 µM |

Proceeding to the next compound to report its IC50.
Q: Given the compound C=CC(=O)N1[C@H]2CC[C@@H]1[C@@H](c1ccc3ncnc(Nc4ccc(Oc5ccn6ncnc6c5)c(C)c4F)c3n1)C2 (single isomer, unassigned) , what is its reported IC50?
Result: 0.38 µM
